Tested on: 786-O
Assay: Euclidean distance of Cell Painting phenotypic profile (signed KS, 77 features) to DMSO centroid (dimensionless distance); higher = stronger phenotypic change vs DMSO (phenoactivity)
Settings: 48 h; 5 or 10 uM (library dependent)
Where a name gives a salt, the structure may show the parent alone.
measured-parameter: Euclidean distance
Number only, no unit.

Task: Value lookup for Euclidean distance; key = O=c1cccc2n1C[C@@H]1CNC[C@H]2C1
Result: 1.35

Task: Value lookup for Euclidean distance; key = Cc1ncc(CNC(=O)N(CCCl)N=O)c(N)n1 [Nimustine Hydrochloride]
Result: 1.62

Task: Value lookup for Euclidean distance; key = CCC1(C)CC(=O)NC(=O)C1 [Bemegride]
Result: 0.845

Task: Value lookup for Euclidean distance; key = C[N+](C)(C)CCCCCCCCCC[N+](C)(C)C [Decamethonium Bromide]
Result: 0.57

Task: Value lookup for Euclidean distance; key = CC[C@H]1CN2CC[C@H]1C[C@@H]2[C@@H](O)c1ccnc2ccc(OC)cc12 [Hydroquinidine]
Result: 0.75

Task: Value lookup for Euclidean distance; key = O=c1ccc2cc(O[C@@H]3O[C@H](CO)[C@@H](O)[C@H](O)[C@H]3O)c(O)cc2o1
Result: 0.808

Task: Value lookup for Euclidean distance; key = O=c1c2ccccc2[se]n1-c1ccccc1
Result: 1.37

Task: Value lookup for Euclidean distance; key = CCC1(c2cccc(O)c2)CCCCN(C)C1 (centres undefined) [Meptazinol HCl]
Result: 1.46

Task: Value lookup for Euclidean distance; key = Cc1sc2c(c1C)C(c1ccc(Cl)cc1)=N[C@@H](CC(=O)OC(C)(C)C)c1nnc(C)n1-2
Result: 3.44

###

Test system: A549
Test: Euclidean distance of Cell Painting phenotypic profile (signed KS, 77 features) to DMSO centroid (dimensionless distance); higher = stronger phenotypic change vs DMSO (phenoactivity)
Conditions: 48 h; 5 or 10 uM (library dependent)
Where a name gives a salt, the structure may show the parent alone.
Decision: Euclidean distance compared against 0.9; not below it gives Met, below it gives Not met.

Task: Form field: Euclidean distance at least 0.9? Entry: [O-][n+]1ccccc1[S-].[O-][n+]1ccccc1[S-].[Zn+2]
Result: Met

Task: Form field: Euclidean distance at least 0.9? Entry: CCC(=O)O[C@H]1CC[C@H]2[C@@H]3CC[C@H]4CC(=O)[C@H](C)C[C@]4(C)[C@H]3CC[C@]12C [Drostanolone Propionate]
Result: Met

Task: Form field: Euclidean distance at least 0.9? Entry: CC1(C)C(C=C(Cl)Cl)C1C(=O)OCc1cccc(Oc2ccccc2)c1 (stereo not drawn)
Result: Met

Task: Form field: Euclidean distance at least 0.9? Entry: CC(NC(C)(C)C)C(=O)c1cccc(Cl)c1 (stereo not drawn) [Amfebutamone (Bupropion) HCl]
Result: Not met

Task: Form field: Euclidean distance at least 0.9? Entry: C[C@](O)(COc1ccc(C#N)cc1)C(=O)Nc1ccc(C#N)c(C(F)(F)F)c1
Result: Met

Task: Form field: Euclidean distance at least 0.9? Entry: COc1ccc(C=O)cc1
Result: Not met

Task: Form field: Euclidean distance at least 0.9? Entry: COc1cc2c(cc1OC)[C@@]13CCN4CC5=CCO[C@H]6CC(=O)N2[C@H]1[C@H]6[C@H]5C[C@H]43 [Brucine sulfate salt hydrate]
Result: Not met

Task: Form field: Euclidean distance at least 0.9? Entry: N.N.[Cl][Pt][Cl] [Cisplatin]
Result: Met

Task: Form field: Euclidean distance at least 0.9? Entry: COc1ccc2c(c1)[C@]13CCCC[C@@H]1[C@H](C2)N(C)CC3 [Dextromethorphan hydrobromide hydrate]
Result: Met

Task: Form field: Euclidean distance at least 0.9? Entry: CC(O)(CS(=O)(=O)c1ccc(F)cc1)C(=O)Nc1ccc(C#N)c(C(F)(F)F)c1 (stereo not drawn) [Bicalutamide]
Result: Met

Task: Form field: Euclidean distance at least 0.9? Entry: C=CCN1C[C@H](C(=O)N(CCCN(C)C)C(=O)NCC)C[C@@H]2c3cccc4[nH]cc(c34)C[C@H]21
Result: Met

Task: Form field: Euclidean distance at least 0.9? Entry: O=C1CC[C@@]2(O)[C@H]3Cc4ccc(O)c5c4[C@@]2(CCN3CC2CC2)[C@H]1O5 [Naltrexone HCl]
Result: Not met

Task: Form field: Euclidean distance at least 0.9? Entry: CC(=O)c1c(O)cc(C)oc1=O [Sodium dehydroacetate]
Result: Not met

Task: Form field: Euclidean distance at least 0.9? Entry: COc1cc(OC)c(OC)cc1C=O
Result: Not met

Task: Form field: Euclidean distance at least 0.9? Entry: COc1ccc(C(=O)N2CCCC2=O)cc1
Result: Met

Task: Form field: Euclidean distance at least 0.9? Entry: COCC1(CO)C(=O)C2CCN1CC2 (stereo not drawn)
Result: Met

Task: Form field: Euclidean distance at least 0.9? Entry: C[N+]1(C)[C@@H]2C[C@@H](OC(=O)[C@H](CO)c3ccccc3)C[C@H]1[C@@H]1O[C@@H]12
Result: Not met

Task: Form field: Euclidean distance at least 0.9? Entry: O=C([O-])C(Cl)Cl.[Na+] [Sodium dichloroacetate (DCA)]
Result: Not met

###

Test system: HEPG2
Test: Euclidean distance of Cell Painting phenotypic profile (signed KS, 77 features) to DMSO centroid (dimensionless distance); higher = stronger phenotypic change vs DMSO (phenoactivity)
Details: 48 h; 5 or 10 uM (library dependent)
Counter-ions that a name gives are not always drawn.
Grouping by measured Euclidean distance is done with the following cut points: low bin (below 0.7), mid bin (0.7 to below 0.9), high bin (0.9 or more)

Task: Which Euclidean distance band matches NC(=O)CN1CC(O)CC1=O (stereo not drawn) ?
Result: mid bin

Task: Which Euclidean distance band matches CN1C(=O)COc2c(C(=O)NC3CN4CCC3CC4)cc(Cl)cc21 (stereo not drawn) [Azasetron HCl] ?
Result: low bin

Task: Which Euclidean distance band matches C[C@]12CC[C@@H](O)C[C@@H]1CC[C@@H]1[C@@H]2CC[C@]2(C)C(=O)CC[C@@H]12 ?
Result: low bin

Task: Which Euclidean distance band matches CC(C)(C)c1cc(C=C(C#N)C#N)cc(Br)c1O ?
Result: high bin

Task: Which Euclidean distance band matches CNC(=O)Oc1cccc2ccccc12 ?
Result: low bin

Task: Which Euclidean distance band matches NC(=O)CN1CCCC1=O ?
Result: mid bin

Task: Which Euclidean distance band matches S=C=NCc1ccccc1 [Benzyl isothiocyanate] ?
Result: high bin

Task: Which Euclidean distance band matches C[C@]12CC[C@H](O)CC1=CC[C@@H]1[C@@H]2CC[C@]2(C)C(=O)CC[C@@H]12 [Dehydroepiandrosterone (DHEA)] ?
Result: high bin

Task: Which Euclidean distance band matches C#C[C@]1(O)C=C[C@H]2[C@@H]3CCC4=CC(=O)CC[C@@H]4[C@H]3CC[C@@]21CC ?
Result: high bin

Task: Which Euclidean distance band matches CC[N+](C)(CC)CCOC(=O)C(O)(c1ccccc1)c1ccccc1 [Methylbenactyzine Bromide] ?
Result: low bin

Task: Which Euclidean distance band matches COc1cc2c(cc1OC)[C@@]13CCN4CC5=CCO[C@H]6CC(=O)N2[C@H]1[C@H]6[C@H]5C[C@H]43 [Brucine sulfate salt hydrate] ?
Result: mid bin

Task: Which Euclidean distance band matches O=[N+]([O-])C(Br)(CO)CO ?
Result: mid bin

Task: Which Euclidean distance band matches CCOc1ccccc1-n1c(C(C)N2CCN(C(=O)COc3ccc(Cl)cc3)CC2)nc2ccccc2c1=O (stereo not drawn) ?
Result: high bin

###

Test system: 786-O
Experiment: Euclidean distance of Cell Painting phenotypic profile (signed KS, 77 features) to DMSO centroid (dimensionless distance); higher = stronger phenotypic change vs DMSO (phenoactivity)
Conditions: 48 h; 5 or 10 uM (library dependent)
Structures can show the parent of a compound that is named as a salt.
measured-parameter: Euclidean distance
Number only, no unit.

Task: Value lookup for Euclidean distance; key = COc1cc2c(c(OC)c1OC)-c1ccc(OC)c(=O)cc1[C@@H](NC(C)=O)CC2 [Colchicine]
Result: 3.12

Task: Value lookup for Euclidean distance; key = C=CC[C@]1(O)CC[C@H]2[C@@H]3CCC4=CC(=O)CCC4=C3C=C[C@@]21C [Altrenogest]
Result: 1.11

Task: Value lookup for Euclidean distance; key = CN1CCN(c2nc3ccccc3nc2Cl)CC1
Result: 0.803

Task: Value lookup for Euclidean distance; key = C[C@]12CC[C@H](O)C[C@@H]1CC[C@@H]1[C@@H]2CC[C@]2(C)C(=O)CC[C@@H]12 [Epiandrosterone]
Result: 1.32

Task: Value lookup for Euclidean distance; key = COc1ccc2[nH]cc(CCN)c2c1 [5-Methoxytryptamine]
Result: 0.978

Task: Value lookup for Euclidean distance; key = O=c1[nH]c2ccc(Cl)cc2c(N[C@@H]2CN3CCC2CC3)c1-c1nc2ccccc2[nH]1
Result: 4.06

Task: Value lookup for Euclidean distance; key = O=C(CC1NCCCC1O)Cn1cnc2cc(Br)c(Cl)cc2c1=O (stereo not given) [Halofuginone]
Result: 3.67

Task: Value lookup for Euclidean distance; key = Cc1cccc(C(C)c2c[nH]cn2)c1C (stereo not given) [Medetomidine HCl]
Result: 0.819

Task: Value lookup for Euclidean distance; key = c1ccc2c(c1)Nc1ccccc1S2 [Phenothiazine]
Result: 0.657

Task: Value lookup for Euclidean distance; key = CN1c2ccccc2C(NCCCCCCC(=O)O)c2ccc(Cl)cc2S1(=O)=O (stereo not given) [Tianeptine sodium]
Result: 1.2

Task: Value lookup for Euclidean distance; key = O=C(O)c1nn(Cc2ccc(Cl)cc2Cl)c2ccccc12 [Lonidamine]
Result: 0.877

Task: Value lookup for Euclidean distance; key = Nc1ccncc1 [4-Aminopyridine]
Result: 1.38

Task: Value lookup for Euclidean distance; key = C=CCN1CC[C@]23c4c5ccc(O)c4O[C@H]2C(=O)CC[C@@]3(O)[C@H]1C5 [Naloxone HCl]
Result: 1.04

Task: Value lookup for Euclidean distance; key = O=C1CCC[C@@H]2[C@H]3CCCN4CCC[C@@H](CN12)[C@@H]34 [(+)-Matrine]
Result: 1

Task: Value lookup for Euclidean distance; key = COC1=C[C@@H]2[C@@H]3Cc4ccc(OC)c(O)c4[C@]2(CCN3C)CC1=O [Sinomenine]
Result: 0.934

Task: Value lookup for Euclidean distance; key = CC(=O)NC1CCSC1=O (stereo not given) [Citiolone]
Result: 1.19

Task: Value lookup for Euclidean distance; key = O=C(O)CNC(=O)C1C(=O)N(C2CCCCC2)C(=O)N(C2CCCCC2)C1=O
Result: 1.18

Task: Value lookup for Euclidean distance; key = CC[C@@H](CO)NC(=O)[C@@H]1C=C2c3cccc4c3c(cn4C)C[C@H]2N(C)C1 [Methysergide Maleate]
Result: 0.845

Task: Value lookup for Euclidean distance; key = C[C@H]1O[C@H](O[C@H]2[C@H](O)[C@@H](O)[C@@H](O)[C@H](O)[C@@H]2O)[C@@H](N)C[C@@H]1NC(=N)C(=O)O [Kasugamycin hydrochloride]
Result: 1.08

Task: Value lookup for Euclidean distance; key = CNCC(=O)c1ccc(O)c(O)c1 [Adrenalone HCl]
Result: 1.06

Task: Value lookup for Euclidean distance; key = CN1[C@@H]2CC(O)C[C@H]1[C@@H]1O[C@@H]12 (stereo not given in full) [Scopine HCl]
Result: 0.344

Task: Value lookup for Euclidean distance; key = Cc1sc2c(c1C)C(c1ccc(Cl)cc1)=N[C@@H](CC(=O)Nc1ccc(O)cc1)c1nnc(C)n1-2
Result: 2.95

Task: Value lookup for Euclidean distance; key = O=P1(N(CCCl)CCCl)NCCCO1 (stereo not given) [Cyclophosphamide Monohydrate]
Result: 1.18

Task: Value lookup for Euclidean distance; key = C=CN1CCCC1=O.II [Povidone iodine]
Result: 0.772

Task: Value lookup for Euclidean distance; key = CC(CCc1ccccc1)NC(C)C(O)c1ccc(O)cc1 (stereo not given) [Nylidrin Hydrochloride]
Result: 1.45

Task: Value lookup for Euclidean distance; key = CCC1(c2ccc(N)cc2)CCC(=O)NC1=O (stereo not given) [Aminoglutethimide]
Result: 1.19

Task: Value lookup for Euclidean distance; key = CC1(C)S[C@@H]2[C@H](N)C(=O)N2[C@H]1C(=O)O [6-Aminopenicillanic acid]
Result: 1.51

Task: Value lookup for Euclidean distance; key = CNC(=O)Oc1cccc2ccccc12 [Carbaryl]
Result: 1.83

Task: Value lookup for Euclidean distance; key = CO[C@]12C[C@@H](COC(=O)c3cncc(Br)c3)CN(C)[C@@H]1Cc1cn(C)c3cccc2c13 [Nicergoline]
Result: 1.37

Task: Value lookup for Euclidean distance; key = CN(C)Cc1c[nH]c2ccccc12 [Gramine]
Result: 1.2

Task: Value lookup for Euclidean distance; key = CN(C)NC(=O)CCC(=O)O [Daminozide]
Result: 0.626

Task: Value lookup for Euclidean distance; key = Clc1ccc(C(OCCN2CCCCC2)c2ccccc2)cc1 (stereo not given) [Cloperastine hydrochloride]
Result: 0.838

Task: Value lookup for Euclidean distance; key = N.N.[Cl][Pt][Cl] [Cisplatin]
Result: 1.62

Task: Value lookup for Euclidean distance; key = CC(C)(C)c1cc(C=C(C#N)C#N)cc(Br)c1O
Result: 1.41

Task: Value lookup for Euclidean distance; key = CC(C)=CCOc1c2occc2cc2ccc(=O)oc12 [Imperatorin]
Result: 1.11
